target: K3A/K4A-ORF1p (Homo sapiens, UniProt Q9UN81 1-338, K3A;K4A)
Sequence (Q9UN81 other isoform, or with tags, fused parts or gaps K3A;K4A): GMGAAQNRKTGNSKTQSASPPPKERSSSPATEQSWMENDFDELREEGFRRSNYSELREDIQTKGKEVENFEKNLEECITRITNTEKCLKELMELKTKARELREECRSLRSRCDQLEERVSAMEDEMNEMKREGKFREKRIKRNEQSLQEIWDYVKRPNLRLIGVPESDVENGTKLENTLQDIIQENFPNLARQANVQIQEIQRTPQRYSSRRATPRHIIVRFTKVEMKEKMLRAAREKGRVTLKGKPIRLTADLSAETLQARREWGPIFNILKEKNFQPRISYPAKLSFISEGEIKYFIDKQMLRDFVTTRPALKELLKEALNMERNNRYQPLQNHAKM
experiment.summary: fluorescence anisotropy; 50 mM KCl; 20 mM Hepes pH 7.5, 50 mM KCl (150 or 300 mM in Fig. S1D rows), 1 mM MgCl2, 1 mM DTT; 1 nM 6-FAM oligo; temperature not stated
experimental.context: protein: recombinant; tags: tag removed, N-terminal G left; chain copies: 3; label: 5' 6-FAM (anisotropy); unstructured
quantity.name: Kd (nM)
Numbers only here, please. The scale is nM.

Item under review: ACCAUCAUCAAAGACCAAAAGUAGAUAAAA (ssRNA) [30 nt RNA] . Reported Kd?
11.1
